- System: Saccharomyces cerevisiae ATCC 7754
EXPERIMENTAL_READOUT: MIC (µg/mL)
Numbers only, in µg/mL.

COMPOUND	EXPERIMENTAL_READOUT	UNIT_SPEC	MEASURED_VALUE
CCCCCCCC/C=C/C(C)=O [Compound 2, (E)-3-Dodecen-2-one]	MIC	µg/mL	800

Query compound follows.
Input: Find MIC for CCCCCCC/C=C/C(C)=O [Compound 1, (E)-3-Undecen-2-one] on Saccharomyces cerevisiae ATCC 7754 and write it down.
Output: 800

====

- System: Saccharomyces cerevisiae ATCC 7754
- ASSAY_EXPLANATION: MIC by two-fold serial broth dilution
- Assay type: cell-based
- CONDITIONS_USED: Saccharomyces cerevisiae, ATCC7754, 48 h; S. cerevisiae; malt extract broth; two days, turbidity OD 660 nm
So I've got a bunch of molecules here, and I need their MIC values.

MOLECULE	MIC
CCCCCCCCCCCCC/C=C/C(C)=O [Compound 8, (E)-3-Heptadecen-2-one]	> 800 µg/mL
C=CCCCCCCCC/C=C/C(C)=O [Compound 5, (E)-3,13-Tetradecadien-2-one]	> 800 µg/mL

Kindly review the next molecule as well.
Input: // Input: CCCCCCCCCCCC/C=C/C(C)=O [Compound 7, (E)-3-Hexadecen-2-one] . Output its MIC only.
Output: > 800 µg/mL

====

I'd be grateful if you could share measured MIC for these entries.
- Tested on: Candia utilis ATCC 9226

In the examples that follow, each entry is paired with its recorded MIC.
MOLECULE	MIC
CCCCCCCC/C=C/C(C)=O [Compound 2, (E)-3-Dodecen-2-one]	400 µg/mL
CCCCCCCCCCCC/C=C/C(C)=O [Compound 7, (E)-3-Hexadecen-2-one]	> 800 µg/mL
CCCCCCCCCCCCC/C=C/C(C)=O [Compound 8, (E)-3-Heptadecen-2-one]	> 800 µg/mL
CCCCCCCCC/C=C/C(C)=O [Compound 3, (E)-3-Tridecen-2-one]	> 800 µg/mL
CCCCCCC/C=C/C(C)=O [Compound 1, (E)-3-Undecen-2-one]	50 µg/mL

Quick batch: MIC for everything below.
1. C=CCCCCCCCC/C=C/C(C)=O [Compound 5, (E)-3,13-Tetradecadien-2-one]
2. CCCCCCCCCCC/C=C/C(C)=O [Compound 6, (E)-3-Pentadecen-2-one]
3. CCCCCCCCCC/C=C/C(C)=O [Compound 4, (E)-3-Tetradecen-2-one]

Output:
1. > 800 µg/mL
2. > 800 µg/mL
3. > 800 µg/mL

====

- Test system: Saccharomyces cerevisiae ATCC 7754
- ASSAY_EXPLANATION: MIC by two-fold serial broth dilution
- Type: cell-based
- CONDITIONS_USED: Saccharomyces cerevisiae, ATCC7754, 48 h; S. cerevisiae; malt extract broth; two days, turbidity OD 660 nm
EXPERIMENTAL_READOUT: MIC

COMPOUND	TARGET	MEASURED_VALUE
CCCCCCCCCCC/C=C/C(C)=O [Compound 6, (E)-3-Pentadecen-2-one]	Saccharomyces cerevisiae ATCC 7754	> 800 µg/mL
CCCCCCCCCC/C=C/C(C)=O [Compound 4, (E)-3-Tetradecen-2-one]	Saccharomyces cerevisiae ATCC 7754	> 800 µg/mL

Query compound follows.
Input: For the compound CCCCCCCCC/C=C/C(C)=O [Compound 3, (E)-3-Tridecen-2-one] , report MIC.
Output: > 800 µg/mL
